Cited source: paper PMC11546061

- ASSAY_INFO: Pharmacokinetics and lung-tissue distribution after single IV, IN or PO dose
- Format: in vivo, C57BL/6 mice
- ASSAY_SETUP: C57BL/6, mouse, lung, po, 100 mg/kg; read-out: Vz/F (PO)
METRIC: Vd/F

COMPOUND | METRIC | RECORDED_VALUE
O=C(O[C@@H]1Cc2c(O)cc(O)cc2O[C@@H]1c1cc(O)c(O)c(O)c1)c1cc(O)c(O)c(O)c1 [EGCG, Epigallocatechin gallate, reference compound] | Vd/F | 2680 L/kg

----------
- ASSAY_INFO: Pharmacokinetics and lung-tissue distribution after single IV, IN or PO dose
- Format: in vivo, C57BL/6 mice
- ASSAY_SETUP: C57BL/6, mouse, lung, po, 100 mg/kg; read-out: F (absolute oral bioavailability, PO/IV)

COMPOUND | bioavailability
O=C(O[C@@H]1Cc2c(O)cc(O)cc2O[C@@H]1c1cc(O)c(O)c(O)c1)c1cc(O)c(O)c(O)c1 [EGCG, Epigallocatechin gallate, reference compound] | 2%
